- TARGET ENTITY: T1, Spy_(24-124) (UniProt P77754 47-147)
- T1 construct: source: E. coli BL21 (DE3), purified (Ni-NTA, cation exchange, SEC); not shown: His6, N-terminal, cleaved; SUMO, N-terminal, cleaved
- T1 sequence (looked up): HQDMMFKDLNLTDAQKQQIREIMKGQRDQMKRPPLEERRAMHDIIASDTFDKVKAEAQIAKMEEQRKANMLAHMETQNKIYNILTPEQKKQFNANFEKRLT
- ASSAY NOTES: BLI; Octet RED96; client biotinylated and loaded on streptavidin sensors; Spy or Spy variant in solution at 0.25, 0.5, 1, 1.5 and 2 μM; 40 mM HEPES, 150 mM NaCl, pH 7.5; Kd calculated as koff/kon
- CONDITION SUMMARY: both partners purified
PROPERTY NAME: pKd
The scale used: pKd is minus the common logarithm of the concentration in molar units.

Give the measured pKd of Im7 H40W L53A I54A (natural protein, biotin (EZ-link NHS-biotin, 1:1 molar ratio of biotin to protein), Im7 (colicin E7 immunity protein) with H40W L53A I54A; Spy was made with an N-terminal His6-SUMO tag that was cleaved; also called Im7AAW; partially folded client; source: purified by a similar procedure to Spy) MELKNSISDYTEAEFVQLLKEIEKENVAATDDVLDVLLEWFVKITEHPDGTDAAYYPSDNRDDSPEGIVKEIKEWRAANGKPGFKQG .
5.79
